study_system: FGFR3 (human) (UniProt P22607)
Sequence (P22607 whole entry, looked up): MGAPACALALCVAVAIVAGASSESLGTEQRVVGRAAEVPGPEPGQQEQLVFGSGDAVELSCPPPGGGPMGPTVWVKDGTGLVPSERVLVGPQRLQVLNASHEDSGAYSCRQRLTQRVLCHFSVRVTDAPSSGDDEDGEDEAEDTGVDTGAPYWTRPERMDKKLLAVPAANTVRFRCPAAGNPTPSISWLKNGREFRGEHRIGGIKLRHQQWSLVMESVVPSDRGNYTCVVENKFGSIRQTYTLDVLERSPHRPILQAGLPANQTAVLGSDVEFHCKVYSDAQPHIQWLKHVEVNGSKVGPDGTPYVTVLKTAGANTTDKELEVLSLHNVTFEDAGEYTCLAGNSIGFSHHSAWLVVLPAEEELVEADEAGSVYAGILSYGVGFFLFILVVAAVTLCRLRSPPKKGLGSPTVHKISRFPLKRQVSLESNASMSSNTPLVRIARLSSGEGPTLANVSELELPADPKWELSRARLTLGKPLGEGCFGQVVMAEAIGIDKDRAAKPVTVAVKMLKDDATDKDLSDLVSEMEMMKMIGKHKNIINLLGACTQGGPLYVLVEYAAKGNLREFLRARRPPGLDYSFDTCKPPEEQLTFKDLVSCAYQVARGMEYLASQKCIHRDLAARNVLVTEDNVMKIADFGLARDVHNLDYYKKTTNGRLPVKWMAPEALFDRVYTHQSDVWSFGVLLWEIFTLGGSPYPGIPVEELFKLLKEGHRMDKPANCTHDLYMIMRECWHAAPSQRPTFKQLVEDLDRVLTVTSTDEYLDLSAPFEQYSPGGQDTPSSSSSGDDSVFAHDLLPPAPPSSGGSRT
test: radiometric filter-binding kinase assay, Kinase HotSpot
measurement_parameters: compound 0.5 µM; ATP 10 µM
# label = 1.0 if residual activity >= 90% else 0.0

smiles_entry: Cn1c2ccccc2c2c3c(c4c5ccccc5n(CCC#N)c4c21)CNC3=O
class: 0.0

Ask | Please indicate if the recorded residual activity for "CN(C)c1ccc(/C=C2\C(=O)Nc3ccccc32)cc1" meets or exceeds 90%.
Reply | 1.0

Ask | Another compound to look at: "COc1cc2ncnc(Nc3ccc(OCc4ccccc4)cc3)c2cc1OC"
Reply | 1.0

Ask | Another compound to look at: "COc1ccc(C(=O)Nc2sc3c(c2C(N)=O)CCCC3)cc1OC"
Reply | 1.0

Ask | Another compound to look at: "COc1cc2ncnc(Nc3ccc(Oc4ccccc4)cc3)c2cc1OC"
Reply | 0.0

Ask | Another compound to look at: "COc1cc(Nc2c(C#N)cnc3cc(OCCCN4CCN(C)CC4)c(OC)cc23)c(Cl)cc1Cl"
Reply | 0.0
